# System under test: RXRα (Homo sapiens, UniProt P19793)
# Construct: expressed in transfected cells
# Sequence (P19793 whole entry): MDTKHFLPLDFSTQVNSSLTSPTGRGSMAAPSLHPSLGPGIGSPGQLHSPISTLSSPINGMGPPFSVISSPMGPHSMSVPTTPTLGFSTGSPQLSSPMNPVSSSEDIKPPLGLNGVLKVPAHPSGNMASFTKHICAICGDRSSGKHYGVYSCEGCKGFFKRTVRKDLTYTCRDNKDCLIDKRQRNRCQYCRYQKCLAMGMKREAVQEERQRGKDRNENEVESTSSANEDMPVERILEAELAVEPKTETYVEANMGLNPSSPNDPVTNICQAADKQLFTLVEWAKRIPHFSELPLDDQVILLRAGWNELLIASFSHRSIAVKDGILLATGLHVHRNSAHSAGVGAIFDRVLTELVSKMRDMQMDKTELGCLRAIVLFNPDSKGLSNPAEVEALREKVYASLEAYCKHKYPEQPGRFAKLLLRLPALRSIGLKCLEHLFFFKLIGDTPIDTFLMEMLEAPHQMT
# Procedure text: holoreceptor transactivation assay, RXRα
# Assay type: cell-based
Each entry below carries its reported % Eff RXR α.
Quick reminder: number only, in %, skip the unit.

CCCCCc1oc2ccc([C@@]3(C)C[C@H]3/C=C/C(C)=C/C(=O)O)cc2c1C(C)(C)C [Compound 38] :: 100
CCc1oc2ccc([C@@]3(C)C[C@H]3/C=C/C(C)=C/C(=O)O)cc2c1C(C)(C)C [Compound 12] :: 144
CCc1oc2ccc([C@@]3(C)C[C@H]3/C=C/C(C)=C/C(=O)O)cc2c1CC [Compound 20] :: 130

Q) Dear colleague, I am looking for the recorded % Eff RXR α of the following compound: CCc1oc2ccc([C@@]3(C)C[C@H]3/C=C/C(C)=C/C(=O)O)cc2c1C(C)C [Compound 28]
A) 102

----------
Reported Kd values for a set of compounds
# System under test: RXRα (Homo sapiens)
# Construct: expressed in transfected cells
# Procedure text: ligand binding assay, RXRα
# Test settings: read-out: Kd (nM) RXR α
Could you give me the number in nM? Just the number is fine.

Completed entries (count: 2):
CCc1oc2ccc([C@@]3(C)C[C@H]3/C=C/C(C)=C/C(=O)O)cc2c1C(C)C :: 6.8
CCc1oc2ccc([C@@]3(C)C[C@H]3/C=C/C(C)=C/C(=O)O)cc2c1CC :: 71

Q) Which Kd is listed for `CCCCCc1oc2ccc([C@@]3(C)C[C@H]3/C=C/C(C)=C/C(=O)O)cc2c1C(C)(C)C` ?
A) 19.5

Q) What about `CCc1oc2ccc([C@@]3(C)C[C@H]3/C=C/C(C)=C/C(=O)O)cc2c1C(C)(C)C` ?
A) 11
